# System: Karpas-422 cells
# test.name: Anti-proliferation by Cell Titer-Glo method (Test Example 3)
# Format: cell-based
# particulars: Homo sapiens; Karpas-422 cells, Cell-Titer Glo on the eleventh day; read-out: Test Example 3 Karpas-422 cell anti-proliferation IC50
pIC50: −log10 of the molar value.

# smiles.notation, pIC50
data = [
    ("Cc1cc(C)c(CNC(=O)c2cc(Cl)c3c(c2C)OC[C@H]([C@H]2CC[C@@H](N(C)C)CC2)O3)c(=O)[nH]1", "< 6.00"),
    ("COC1CN([C@H]2CC[C@H]([C@@H]3COc4c(F)cc(C(=O)NCc5c(SC)cc(C)[nH]c5=O)c(C)c4O3)CC2)C1", "< 6.00"),
    ("Cc1cc(C)c(CNC(=O)c2cc(Cl)c3c(c2C)O[C@H]([C@H]2CC[C@@H](N(C)C)CC2)CO3)c(=O)[nH]1", "< 6.00"),
]
